Here the recorded growth AUC is given for each entry.
Tested on: Akkermansia muciniphila
Assay: growth AUC relative to DMSO control (median of replicates) (fraction); higher = more growth (less inhibition), active = hit call of the paper
Settings: 20 µM; 24 h
Just the number, please, no unit after it.

Solved entries (count: 10):
compound=N#Cc1nn(-c2c(Cl)cc(C(F)(F)F)cc2Cl)c(N)c1SC(F)(F)F system="Akkermansia muciniphila" assay_value=1.01
compound=Cl.NC1=NCCN1Cc1ccc(Cl)nc1 system="Akkermansia muciniphila" assay_value=1.03
compound=O=C(O)COc1nc(Cl)c(Cl)cc1Cl system="Akkermansia muciniphila" assay_value=1.13
compound=COC(=O)NCc1cc(/C(C)=N/OCc2cccc(C)n2)ccc1Cl system="Akkermansia muciniphila" assay_value=1.06
compound=COP(=O)(OC)Oc1ccc([N+](=O)[O-])cc1 system="Akkermansia muciniphila" assay_value=1.17
compound=Nc1nc(N)[nH]c(=O)n1 system="Akkermansia muciniphila" assay_value=1.05
compound="CC(C)CC(C)c1sccc1NC(=O)c1cn(C)nc1C(F)(F)F (configuration not stated)" system="Akkermansia muciniphila" assay_value=0.99
compound=CC(C)c1ccc(NC(=O)N(C)C)cc1 system="Akkermansia muciniphila" assay_value=1.04
compound=O=C(O)c1cc(Oc2ccc(C(F)(F)F)cc2Cl)ccc1[N+](=O)[O-] system="Akkermansia muciniphila" assay_value=1.01
compound=O=C(OC1CCCCC1)c1ccccc1C(=O)OC1CCCCC1 system="Akkermansia muciniphila" assay_value=1

For the compound CCC/C(=N\OCC)C1=C(O)CC(CC(C)SCC)CC1=O (configuration not stated) , what growth AUC is on record?
0.936

Consider the compound shown here: Fc1ccc(C2(Cn3cncn3)OC2c2ccccc2Cl)cc1 (configuration not stated) What is its recorded growth AUC?
0.955

Query (compound): O=c1oc2ccccc2c(O)c1C1CC(c2ccc(-c3ccccc3)cc2)Cc2ccccc21 (configuration not stated) ; field requested: growth AUC
0.831
